PROTOCOL SUMMARY: Cell viability assay (CellTiter-Glo) on MOLM-13
Type: cell-based
STUDY CONDITIONS: human, MOLM-13 cells, 2.5 µM, average of two biological replicates
Description: MOLM-13, NOMO-1, THP-1, Kasumi-1, PC3, and DU145 cell lines were obtained from DSMZ-German Collection of Microorganisms and Cell Cultures GmbH. […] Cell viability was determined using a CellTiter-Glo luminescent cell viability assay (Promega) based on the detection of ATP according to the manufacturer’s instructions. […] Background luminescence value was obtained from wells containing the CellTiter-Glo reagent and medium without cells. The resulting data was analyzed in GraphPad Prism 9.
In this section we review reported viability at 72 h, […] values for a set of compounds.
Just the number in %, nothing appended.

INSERT INTO assay_data (compound, measurement_kind, display_unit, result_number) VALUES
  ('CC1(C)CCN(Cc2cc(F)c(N3CC(=O)NC4(CCN(c5cc(NCc6cccc(CNC(=O)CCCCCCCCn7cc(CNc8cccc9c8C(=O)N(C8CCC(=O)NC8=O)C9=O)nn7)c6)ncn5)CC4)C3)cc2F)CC1 (stereo not drawn) [Compound 19]', 'viability at 72 h, […]', '%', 102),
  ('CC1(C)CCN(Cc2cc(F)c(N3CC(=O)NC4(CCN(c5cc(NCC6CCN(C(=O)CCCCCCCNc7cccc8c7C(=O)N(C7CCC(=O)NC7=O)C8=O)CC6)ncn5)CC4)C3)cc2F)CC1 (stereo not drawn) [Compound 25]', 'viability at 72 h, […]', '%', 92.1);

Exam item: Look up viability at 72 h, […]: CC1(C)CCN(Cc2cc(F)c(N3CC(=O)NC4(CCN(c5cc(NCc6cccc(CNC(=O)CCn7cc(CNc8cccc9c8C(=O)N(C8CCC(=O)NC8=O)C9=O)nn7)c6)ncn5)CC4)C3)cc2F)CC1 (stereo not drawn) [Compound 18]
Marked response: 104

Exam item: Can you check CC1(C)CCN(Cc2cc(F)c(N3CC(=O)NC4(CCN(c5cc(NCc6cn(CCCCCCCCC(=O)Nc7cccc8c7CN(C7CCC(=O)NC7=O)C8=O)nn6)ncn5)CC4)C3)cc2F)CC1 (stereo not drawn) [Compound 26] next?
Marked response: 91.2

Exam item: Can you check CC1(C)CCN(Cc2cc(F)c(N3CC(=O)NC4(CCN(c5cc(NCc6cccc(CNC(=O)CCCCCCCCCCNc7cccc8c7CN(C7CCC(=O)NC7=O)C8=O)c6)ncn5)CC4)C3)cc2F)CC1 (stereo not drawn) [Compound 17] next?
Marked response: 112

Exam item: Can you check CC1(C)CCN(Cc2cc(F)c(N3CC(=O)NC4(CCN(c5cc(NCCN6CCN(C(=O)CCCCCNc7cccc8c7C(=O)N(C7CCC(=O)NC7=O)C8=O)CC6)ncn5)CC4)C3)cc2F)CC1 (stereo not drawn) [Compound 30] next?
Marked response: 91.1

###

SYSTEM TESTED: METTL3-14 (Homo sapiens)
Sequence (Q86U44 whole entry): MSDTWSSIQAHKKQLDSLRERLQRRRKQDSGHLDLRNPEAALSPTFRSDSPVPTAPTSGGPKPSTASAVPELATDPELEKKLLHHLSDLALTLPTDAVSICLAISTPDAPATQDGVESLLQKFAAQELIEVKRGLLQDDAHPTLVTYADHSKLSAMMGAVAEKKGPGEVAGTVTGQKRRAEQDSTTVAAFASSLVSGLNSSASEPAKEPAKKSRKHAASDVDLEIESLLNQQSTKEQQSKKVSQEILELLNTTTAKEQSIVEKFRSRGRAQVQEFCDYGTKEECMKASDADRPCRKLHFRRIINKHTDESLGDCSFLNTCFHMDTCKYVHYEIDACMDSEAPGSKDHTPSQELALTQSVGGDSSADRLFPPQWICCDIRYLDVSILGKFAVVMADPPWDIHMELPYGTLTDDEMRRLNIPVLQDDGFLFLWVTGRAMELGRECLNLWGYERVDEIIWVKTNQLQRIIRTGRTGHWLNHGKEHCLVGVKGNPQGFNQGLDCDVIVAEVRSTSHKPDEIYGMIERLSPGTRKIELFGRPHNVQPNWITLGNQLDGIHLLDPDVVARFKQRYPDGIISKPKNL
Sequence (Q9HCE5 whole entry, further chain): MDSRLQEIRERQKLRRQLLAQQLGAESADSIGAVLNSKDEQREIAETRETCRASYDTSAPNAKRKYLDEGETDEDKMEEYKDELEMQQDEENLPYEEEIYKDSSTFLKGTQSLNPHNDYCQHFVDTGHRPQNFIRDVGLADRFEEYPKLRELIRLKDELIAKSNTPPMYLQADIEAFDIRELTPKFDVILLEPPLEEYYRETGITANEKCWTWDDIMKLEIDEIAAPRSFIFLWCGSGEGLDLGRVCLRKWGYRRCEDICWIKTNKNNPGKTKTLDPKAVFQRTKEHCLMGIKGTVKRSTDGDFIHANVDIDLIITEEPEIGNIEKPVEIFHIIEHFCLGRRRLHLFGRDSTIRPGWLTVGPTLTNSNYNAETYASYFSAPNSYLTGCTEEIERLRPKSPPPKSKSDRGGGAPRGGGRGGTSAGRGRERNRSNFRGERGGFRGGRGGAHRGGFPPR
PROTOCOL SUMMARY: biochemical
Set-up: with the full-length complex, the recombinant complex construct pFastBacDual-StrepII-GFP-TEV-METTL3-His-TEV-METTL14 was expressed; StrepII (N); GFP (N); TEV site (N); made in house; host or cells: baculovirus/Sf9 insect cells
STUDY CONDITIONS: inhibition of catalytic activity of METTL3-14, binary FRET assay
Rule: IC50 below 70 nM gives Met, anything at or above gives Not met.

INSERT INTO measurements (molecule, system_tested, class) VALUES
  ('CC1(C)CCN(Cc2ccc(N3CC(=O)NC4(CCN(c5cc(NCCCNC(=O)CCOCCOCCOCCNc6cccc7c6C(=O)N(C6CCC(=O)NC6=O)C7=O)ncn5)CC4)C3)cc2)CC1 (stereo not drawn) [Compound 2]', 'METTL3-14 (Homo sapiens)', 'Not met'),
  ('CC1(C)CCN(Cc2cc(F)c(N3CC(=O)NC4(CCN(c5cc(NCC6CCN(C(=O)CCCNc7cccc8c7C(=O)N(C7CCC(=O)NC7=O)C8=O)CC6)ncn5)CC4)C3)cc2F)CC1 (stereo not drawn) [Compound 22]', 'METTL3-14 (Homo sapiens)', 'Met'),
  ('CC1(C)CCN(Cc2cc(F)c(N3CC(=O)NC4(CCN(c5cc(NCc6cccc(CNC(=O)CCCCCCCCNc7cccc8c7CN(C7CCC(=O)NC7=O)C8=O)c6)ncn5)CC4)C3)cc2F)CC1 (stereo not drawn) [Compound 16]', 'METTL3-14 (Homo sapiens)', 'Met'),
  ('CC1(C)CCN(Cc2cc(F)c(N3CC(=O)NC4(CCN(c5cc(NCC6CCN(C(=O)CCCNc7ccc8c(c7)C(=O)N(C7CCC(=O)NC7=O)C8=O)CC6)ncn5)CC4)C3)cc2F)CC1 (stereo not drawn) [Compound 23]', 'METTL3-14 (Homo sapiens)', 'Met'),
  ('CC1(C)CCN(Cc2cc(F)c(N3CC(=O)NC4(CCN(c5cc(NCc6cn(CCCCCCCCCCC(=O)Nc7cccc8c7CN(C7CCC(=O)NC7=O)C8=O)nn6)ncn5)CC4)C3)cc2F)CC1 (stereo not drawn) [Compound 27]', 'METTL3-14 (Homo sapiens)', 'Not met'),
  ('CC1(C)CCN(Cc2ccc(N3CC(=O)NC4(CCN(c5cc(NCCCNC(=O)CCCCCCCCn6cc(CNc7cccc8c7C(=O)N(C7CCC(=O)NC7=O)C8=O)nn6)ncn5)CC4)C3)cc2)CC1 (stereo not drawn) [Compound 9]', 'METTL3-14 (Homo sapiens)', 'Not met'),
  ('CC1(C)CCN(Cc2ccc(N3CC(=O)NC4(CCN(c5cc(NCCCNC(=O)CCOCCOCCOCCOCCOCCNc6cccc7c6C(=O)N(C6CCC(=O)NC6=O)C7=O)ncn5)CC4)C3)cc2)CC1 (stereo not drawn) [Compound 4]', 'METTL3-14 (Homo sapiens)', 'Not met'),
  ('CC1(C)CCN(Cc2cc(F)c(N3CC(=O)NC4(CCN(c5cc(NCCCNC(=O)CCCCCCCCn6cc(CNc7cccc8c7C(=O)N(C7CCC(=O)NC7=O)C8=O)nn6)ncn5)CC4)C3)cc2F)CC1 (stereo not drawn) [Compound 12]', 'METTL3-14 (Homo sapiens)', 'Met');

Now turn to the next molecule.
Exam item: Is it true that IC50 reported for CC1(C)CCN(Cc2ccc(N3CC(=O)NC4(CCN(c5cc(NCCCNC(=O)CCCCCCCCCCNc6cccc7c6CN(C6CCC(=O)NC6=O)C7=O)ncn5)CC4)C3)cc2)CC1 (stereo not drawn) [Compound 6] is less than 70 nM?
Marked response: Not met
